From: patent US10766952B2

- TARGET DESC: T1, rat α-CGRP (Rattus norvegicus, UniProt P01256)
- T1 construct: rat α (1-37); host or cells: synthetic peptide
- T1 sequence (P01256 83-119 limits assumed): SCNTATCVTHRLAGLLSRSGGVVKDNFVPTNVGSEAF
- ASSAY REMARKS: Biacore affinity of antibody G1 Fab and variants to rat α-CGRP
- Type: binding
- CONDITION DESCRIPTION: 37° C., Fab, screening mode unless underlined
RECORDED ENDPOINT: α-rat koff (s⁻¹)
Field: numeric (s⁻¹). Do not append units.

{"columns": ["MOLECULE", "α-rat koff (s⁻¹)"],
 "data": [
  ["M21: G1 variant: L1 R28W; HC-FW3 L99S (antibody, V domains shown) VH: EVQLVESGGGLVQPGGSLRLSCAASGFTFSNYWISWVRQAPGKGLEWVAEIRSESDASATHYAEAVKGRFTISRDNAKNSLYLQMNSLRAEDTAVYYCSAYFDYGLAIQNYWGQGTLVTVSS VL: EIVLTQSPATLSLSPGERATLSCKASKWVTTYVSWYQQKPGQAPRLLIYGASNRYLGIPARFSGSGSGTDFTLTISSLEPEDFAVYYCSQSYNYPYTFGQGTKLEIK", 0.000695]
]}

Q) GET /values?readout=α-rat koff&item= M37: G1 variant: L1 R28N,T30S; H2 A57G; HC-FW3 L99T,A100V (antibody, V domains shown) VH: EVQLVESGGGLVQPGGSLRLSCAASGFTFSNYWISWVRQAPGKGLEWVAEIRSESDGSATHYAEAVKGRFTISRDNAKNSLYLQMNSLRAEDTAVYYCTVYFDYGLAIQNYWGQGTLVTVSS VL: EIVLTQSPATLSLSPGERATLSCKASKNVSTYVSWYQQKPGQAPRLLIYGASNRYLGIPARFSGSGSGTDFTLTISSLEPEDFAVYYCSQSYNYPYTFGQGTKLEIK
A) 0.00145
